I'd be grateful if you could share measured z-score for these entries.
Test: basal HepG2 mitochondrial membrane potential changes, profiling panel, cell-based, JC-1 fluorescence, 24 h, 100 nL compound (AID 1167); note: test concentration not given here
Conditions: higher = more signal
Quick one: just the number, no unit, thanks!

Value lookup for z-score; key = CCOC(=O)C1=CCC(c2ccccc2)N(S(=O)(=O)CC[Si](C)(C)C)C1 (stereo not drawn) 4.48

Please report the recorded z-score for [N-]=[N+]=NCc1ccccc1C[C@@]1(C(=O)NCC(O)CO)N=C(c2ccc(OCCCO)cc2)O[C@@H]1c1ccccc1N=[N+]=[N-] (stereo partly drawn) . -0.158

Given O=C(NCc1ccccc1)[C@@]1(CCS(=O)(=O)c2ccccc2)N=C(c2ccc(OCCCO)cc2)O[C@H]1c1ccccc1 , state its recorded z-score. 1.17

So what's the measured z-score for this one? COc1ccc(C(=O)Nc2cccc(CN3C(=O)[C@]4(O[C@H](CCO)[C@@H]([Si](C)(C)c5ccc(OC)cc5)[C@@H]4C)c4ccccc43)c2)cc1 -2.23

Endpoint output: z-score of CCOc1cc(C(O)C2C=CC3C(=O)N(c4ccccc4)C(=O)C3N2Nc2ccccc2)ccc1O (stereo not drawn) . Value? -1.32

Quick check: z-score of CC1CC/C=C\[C@H]2OC34C=CCN(c5ccc(Cl)cc5)C(=O)[C@H]3N(CCO)C(=O)[C@]4(C)C2C(=O)O1 (stereo partly drawn) ? -0.472

Find the recorded z-score belonging to O=C1C2C=CC(C(O)C3CCCCC3)N(Nc3ccc([N+](=O)[O-])cc3)C2C(=O)N1c1ccccc1 (stereo not drawn) and report it. -0.876

Any idea what z-score was measured for C=CC[C@]1(C(=O)NCCCOC)N=C(c2ccc(OCCCO)cc2)O[C@H]1c1ccccc1N=[N+]=[N-] ? 0.111

###

Experiment: PSAC antagonists in infected red cells, primary screen, cell-based, P. falciparum Indochina, OD700, 18 h (AID 1157)
Settings: P. falciparum Indochina infected erythrocytes, osmotic lysis OD700, 18 h; higher = more signal, called active from +8 up or from −8 down
measurement.kind: z-score
Returns: the value as a bare number; no unit string appended.

Using the record for [N-]=[N+]=NCc1ccccc1C[C@@]1(C(=O)NCC(O)CO)N=C(c2ccc(OCCCO)cc2)O[C@@H]1c1ccccc1N=[N+]=[N-] (stereo partly specified) , report its z-score. 7.41

Recorded z-score for C=C[C@H](COC(C)=O)N(C(=O)OC(C)(C)C)S(=O)(=O)c1ccc(Br)cc1 , please? 0.0544

Which z-score is listed for C=CCOC(=O)[C@H]1[C@@H]2C(=O)O[C@@H](c3ccccc3)[C@@H](c3ccccc3)N2[C@@H](c2ccc(OCCOC(=O)[C@H]3C[C@H]4C(=O)N5CCC[C@H]5C(=O)N4[C@H]3c3ccc(O)cc3)cc2)[C@]12C(=O)Nc1ccc(I)cc12 ? -1.39

For the molecule shown here, O=C1[C@H]2C=C(Br)[C@H](C[C@@H]2c2ccccc2)[C@@]12CO2 , give the reported z-score. 0.279

Which z-score is reported for this molecule? O=C1O[C@H](c2ccccc2)[C@H](c2ccccc2)N2[C@H]1[C@@H](C(=O)N1CCN(c3ncccn3)CC1)[C@]1(C(=O)Nc3ccc(C#CC4=CCCCC4)cc31)[C@H]2c1ccc(O)cc1 1.01

Entry under review: C=CCNC(=O)[C@H]1[C@@H]2C(=O)O[C@@H](c3ccccc3)[C@@H](c3ccccc3)N2[C@@H](c2ccc(O)cc2)[C@]12C(=O)N(C(=O)OCCOC)c1ccc(C#CCNC(N)=O)cc12 . Reported z-score? 0.0898

###

Test: osmotic lysis modulators in infected erythrocytes, primary screen, PSAC antagonist project, cell-based, P. falciparum Indochina, OD700, 3 h (AID 1156)
Details: higher = more signal, called active from +8 up or from −8 down
Label scheme for z-score: lower than 0.4 is FALSE, 0.4 and above is TRUE.

Hi team, for COc1ccc([C@H]2OC[C@@H]3CC4(CC=CC4)C(=O)N32)cc1 , is the recorded z-score at or above 0.4? FALSE

For this molecule, is measured z-score 0.4 or higher? C=CCOC(=O)[C@@H]1[C@H]2C(=O)O[C@H](c3ccccc3)[C@H](c3ccccc3)N2[C@H](c2ccc(OCCOC(=O)[C@@H]3C[C@@H]4C(=O)N[C@@H](CCCCN(C)C)C(=O)N4[C@@H]3c3ccc(O)cc3)cc2)[C@@]12C(=O)Nc1ccc(I)cc12 TRUE

Does the molecule [N-]=[N+]=NCc1ccccc1C[C@]1(C(=O)NCC(O)CO)N=C(c2ccc(OCCCO)cc2)O[C@H]1c1ccccc1 (stereo partly specified) have recorded z-score that is 0.4 or more? FALSE

Hi, just wondering whether C=C(CCCC)C(=O)CC[C@H](OC(C)=O)c1cccc(OCCO)c1 shows z-score of 0.4 or higher. TRUE

Check this molecule for z-score at or above 0.4: COCCCN1C(=O)[C@@]2(Cc3ccccc31)c1ccccc1C(=O)N(Cc1ccccc1C(F)(F)F)[C@H]2c1ccc(CO)cc1 FALSE

Has COCCOC(=O)N1C(=O)[C@@]2(c3cc(C#Cc4ccc(OC)cc4)ccc31)[C@H](c1ccc(O)cc1)N1[C@H](c3ccccc3)[C@H](c3ccccc3)OC(=O)[C@H]1[C@@H]2C(=O)NC[C@H](O)c1ccccc1 a recorded z-score greater than or equal to 0.4? FALSE

###

Assay: basal 3T3-L1 adipocyte mitochondrial potential changes, profiling panel, cell-based, JC-1 fluorescence, 3T3-L1 adipocytes, 24 h, 100 nL compound (AID 1168); note: test concentration not given here
Details: JC-1 mitochondrial fluorescence, higher = more signal, called active from +8 up or from −8 down
Calls of active or inactive are those of the source.
measurement.kind: z-score

So what's the measured z-score for this one? O=C1OCCC/C=C\[C@H]2OC34C=CCN(Cn5nnc6ccccc65)C(=O)[C@H]3N(CCCCCCO)C(=O)[C@@H]4C12 (some centres undefined) 0.932 (inactive)

Look up z-score: C=CCOC(=O)[C@@H]1[C@H]2C(=O)O[C@H](c3ccccc3)[C@H](c3ccccc3)N2[C@H](c2ccc(OCCOC(=O)[C@@H]3C[C@@H]4C(=O)N5CCC[C@H]5C(=O)N4[C@@H]3c3ccc(O)cc3)cc2)[C@@]12C(=O)Nc1ccc(I)cc12 0.231 (inactive)

Return reported z-score; argument: C[C@]1(C(=O)NC2CC2)c2ccccc2C(=O)N(Cc2cc(C(F)(F)F)cc(C(F)(F)F)c2)[C@H]1c1ccc(CO)cc1 -0.0278 (inactive)

Which z-score value belongs to C=CCNC(=O)[C@@H]1[C@H]2C(=O)O[C@H](c3ccccc3)[C@H](c3ccccc3)N2[C@H](c2ccccc2OCCO)[C@@]12C(=O)N(C(=O)OCCOC)c1ccc(C#CCNC(N)=O)cc12 ? 0.586 (inactive)

I have this compound here, C#CCN(CC1=CCCCC1)[C@H](c1ccccc1Br)[C@@H](O)Cc1ccccc1 , and I need its recorded z-score. -0.352 (inactive)

GET /values?readout=z-score&item= O=C1C2C=CC(C(O)c3ccc(F)cc3)N(Nc3ccccc3F)C2C(=O)N1c1ccccc1 (centres undefined) -1.08 (inactive)

What value of z-score has been reported for the following compound? COc1cc2c(cc1O)C=[N+](Cc1cccc(OC(F)(F)F)c1)CC2 0.0547 (inactive)

Need z-score, item CCCC#C[Si](O[C@H](CC)c1cn([C@H](CO)Cc2ccccc2)nn1)(C(C)C)C(C)C 0.406 (inactive)

Return reported z-score; argument: C=C(CCCC)C(=O)CC[C@H](OC(=O)c1cccnc1)c1ccccc1OCCO -0.916 (inactive)

Reported z-score, compound CC(C)(C)OC(=O)CC[C@@]1(C(=O)NCCN2CCOCC2)N=C(c2ccc(OCCCO)cc2)O[C@@H]1c1ccccc1N=[N+]=[N-] : ____ 1.66 (inactive)

Returns the measured z-score for the input compound. Input: COc1cc2c(cc1O)C(C1CC1)N(Cc1cc3c(cc1Br)OCO3)CC2 (centres undefined) -0.457 (inactive)

Given the compound CC1CC/C=C\[C@H]2OC34C=CCN(Cn5nnc6ccccc65)C(=O)[C@H]3N(C(CO)C(C)C)C(=O)[C@@H]4C2C(=O)O1 (some centres undefined) , what is its reported z-score? -0.573 (inactive)

Fill blank: measured z-score of the compound C=CCOC(=O)[C@H]1[C@@H]2C(=O)O[C@@H](c3ccccc3)[C@@H](c3ccccc3)N2[C@@H](c2ccc(OCCOC(=O)[C@H]3C[C@H]4C(=O)N5CCC[C@H]5C(=O)N4[C@H]3c3ccc(O)cc3)cc2)[C@]12C(=O)Nc1ccc(I)cc12 is ____. -0.32 (inactive)

Consider the compound COc1ccc([Si](C)(C)[C@@H]2[C@@H](CC(=O)N3Cc4ccccc4C[C@H]3CO)O[C@]3(C(=O)N(C)c4c(Br)cc(C)cc43)[C@H]2C)cc1 and give its measured z-score. 0.596 (inactive)
